# System: MRC-5 (human lung fibroblast)
# protocol-description: Alamar blue cytotoxicity assay, non-cancerous MRC-5
# Type: cell-based
# measurement-conditions: MRC5, 72 h incubation, non-cancerous cell
experimental-endpoint: IC50

{"structure-smiles-string": "COc1ccc2nc3cc(Cl)ccc3c(NC(=S)N/N=C/c3ccccc3)c2c1", "experimental-endpoint": "IC50", "result": "37 µM"}
{"structure-smiles-string": "S=C(N/N=C/c1ccccc1)Nc1c2ccccc2nc2ccccc12", "experimental-endpoint": "IC50", "result": "> 70 µM"}
{"structure-smiles-string": "S=C(N/N=C/c1ccc(Br)cc1)Nc1c2ccccc2nc2ccccc12", "experimental-endpoint": "IC50", "result": "> 60 µM"}
{"structure-smiles-string": "COc1ccc2nc3cc(Cl)ccc3c(NC(=S)N/N=C/c3ccc(Cl)cc3Cl)c2c1", "experimental-endpoint": "IC50", "result": "> 60 µM"}
{"structure-smiles-string": "Oc1ccc(/C=N/NC(=S)Nc2c3ccccc3nc3ccccc23)cc1", "experimental-endpoint": "IC50", "result": "43.4 µM"}
{"structure-smiles-string": "Oc1cccc(/C=N/NC(=S)Nc2c3ccccc3nc3ccccc23)c1", "experimental-endpoint": "IC50", "result": "33.4 µM"}
{"structure-smiles-string": "COc1ccc(/C=N/NC(=S)Nc2c3ccc(Cl)cc3nc3ccc(OC)cc23)cc1", "experimental-endpoint": "IC50", "result": "> 60 µM"}
{"structure-smiles-string": "COc1ccc2nc3cc(Cl)ccc3c(NC(=S)N/N=C/c3ccc(Cl)cc3)c2c1", "experimental-endpoint": "IC50", "result": "> 60 µM"}
{"structure-smiles-string": "S=C(N/N=C/c1ccc(Cl)cc1Cl)Nc1c2ccccc2nc2ccccc12", "experimental-endpoint": "IC50", "result": "> 60 µM"}
{"structure-smiles-string": "COc1ccc2nc3cc(Cl)ccc3c(NC(=S)N/N=C/c3ccc([N+](=O)[O-])cc3)c2c1", "experimental-endpoint": "IC50", "result": "> 60 µM"}
{"structure-smiles-string": "S=C(N/N=C/c1ccc(Cl)cc1)Nc1c2ccccc2nc2ccccc12", "experimental-endpoint": "IC50", "result": "> 70 µM"}
{"structure-smiles-string": "COc1ccc2nc3cc(Cl)ccc3c(NC(=S)N/N=C/c3ccc(Br)cc3)c2c1", "experimental-endpoint": "IC50", "result": "> 50 µM"}

###

{"molecule": "COc1ccc2nc3cc(Cl)ccc3c(NC(=S)N/N=C/c3ccc(O)cc3)c2c1 [DL-07]", "melting point": "163 to 164 °C"}
{"molecule": "COc1ccc2nc3cc(Cl)ccc3c(NC(=S)N/N=C/c3ccc(N(C)C)cc3)c2c1 [DL-09]", "melting point": "149 to 150 °C"}
{"molecule": "COc1ccc2nc3cc(Cl)ccc3c(NC(=S)N/N=C/c3ccc(Cl)cc3)c2c1 [DL-02]", "melting point": "144 to 145 °C"}
{"molecule": "COc1ccc2nc3cc(Cl)ccc3c(NC(=S)N/N=C/c3ccc(C)cc3)c2c1 [DL-06]", "melting point": "157 to 158 °C"}
{"molecule": "COc1ccc2nc3cc(Cl)ccc3c(NC(=S)N/N=C/c3ccc(Cl)cc3Cl)c2c1 [DL-04]", "melting point": "192 to 193 °C"}
{"molecule": "COc1ccc2nc3cc(Cl)ccc3c(NC(=S)N/N=C/c3ccc(Br)cc3)c2c1 [DL-10]", "melting point": "162 to 163 °C"}
{"molecule": "COc1ccc2nc3cc(Cl)ccc3c(NC(=S)N/N=C/c3ccc([N+](=O)[O-])cc3)c2c1 [DL-05]", "melting point": "164 to 165 °C"}
{"molecule": "COc1ccc(/C=N/NC(=S)Nc2c3ccc(Cl)cc3nc3ccc(OC)cc23)cc1 [DL-03]", "melting point": "148 °C"}

These measurements were taken from paper PMC9506480.
